Multi-source literature compilation: Ki on UniProt:P00915.
Measured Quantity: Ki (µM)

Compound: CC(C)c1cc(-c2ccccc2)cc(C(C)C)[n+]1CC(=O)Nc1cc(C(F)(F)F)c(S(N)(=O)=O)cc1S(N)(=O)=O
Val: 0.31

Compound: CNCC(=O)Nc1cc(Cl)c(S(N)(=O)=O)cc1S(N)(=O)=O
Val: 0.35

Compound: CC(C)C[C@H](NC(=O)c1ccc(S(N)(=O)=O)cc1)C(=O)NCC(=O)O
Val: 0.4

a. NS(=O)(=O)c1ccc(N/C(S)=N\c2cccc(C(=O)O)c2)cc1
b. CC(C)NC(=O)Nc1ccc(S(N)(=O)=O)cc1
query: Task for the reader: decide whether a or b has the larger Ki. Answer format: the label of the selected item.
result: b

====

From various publications: pKi for Carbonic anhydrase 1 (Homo sapiens, UniProt P00915).
pKi: −log10 of the molar value.
Measured Quantity: pKi

Past entries and their recorded results:
Molecule: CC(C)c1cc(-c2ccccc2)cc(C(C)C)[n+]1CC(=O)Nc1nccc(Nc2ccc(S(N)(=O)=O)cc2)n1
pKi: 7.33
//
Molecule: O=C1Nc2ccc(O)cc2S(=O)(=O)N1
pKi: 5.72
//
Molecule: O=C1NS(=O)(=O)c2cccc3c2N1CC3
pKi: 5.16
//
Molecule: Cc1ccc(C#Cc2ccccc2S(N)(=O)=O)cc1
pKi: 3.17
//
Molecule: NS(=O)(=O)c1cc(S(N)(=O)=O)c(NC(=O)CN(CC(=O)O)CC(=O)O)cc1Cl
pKi: 6.52

a. O=S(=O)(NO)C(F)(F)C(F)(F)C(F)(F)C(F)(F)F
b. O=C(O)c1ccc(NCc2ccccc2)cc1
c. CCCC(CCC)COS(N)(=O)=O
d. NS(=O)(=O)c1ccc(C(=O)c2cccc(C(=O)O)n2)c(I)c1
e. NS(=O)(=O)c1ccc(NNC(=O)CN(CCN(CC(=O)O)c2ccccc2O)c2ccccc2O)cc1
query: Endpoint returns the given molecules ordered by ascending pKi. The labels, placed in the requested order, form the answer.
result: e, c, a, d, b

I. C[C@H](CCC(=O)Nc1ccc2nc(S(N)(=O)=O)sc2c1)[C@H]1CC[C@H]2[C@@H]3CC[C@@H]4C[C@H](O)CC[C@]4(C)[C@H]3C[C@H](O)[C@]12C
II. CCC(=O)OC[C@H]1O[C@@H](n2cc(-c3ccc(S(N)(=O)=O)cc3)nn2)[C@H](OC(=O)CC)[C@@H](OC(=O)CC)[C@@H]1OC(=O)CC
III. O=C(CN(Cc1ccccc1)S(=O)(=O)C(F)(F)C(F)(F)C(F)(F)C(F)(F)F)NO
query: Rank the 3 molecules: largest pKi first, smallest last. List each label, following the requested order.
result: I, III, II

====

Listed below are compounds with pKi for Carbonic anhydrase 1 (Homo sapiens, UniProt P00915), each taken from published literature.
pKi: −log10 of the molar value.
Measured Quantity: pKi

Examples with answers:
Compound: C[C@H](CCC(=O)Nc1ccc(S(N)(=O)=O)cc1F)[C@H]1CC[C@H]2[C@@H]3[C@H](O)C[C@@H]4C[C@H](O)CC[C@]4(C)[C@H]3C[C@H](O)[C@]12C
Measured Quantity: pKi
Val: 5.89
--
Compound: CCCC(C)C(=O)Nc1ccc(S(N)(=O)=O)cc1 (centres undefined)
Measured Quantity: pKi
Val: 5.77
--
Compound: CCCC(CCC)C(=O)OCCOc1ccc2nc(S(N)(=O)=O)sc2c1
Measured Quantity: pKi
Val: 7.30

A. NS(=O)(=O)c1ccc(/N=C/c2ccc(O)cc2)cc1
B. NS(=O)(=O)c1cccc(NSC(=S)N2CCOCC2)c1
query: Could you determine which record has the numerically smaller pKi? Candidates: A and B Write down the label of the entry you select.
result: B

1. Cc1cc(=O)oc2cc(O[C@@H]3O[C@H](CO[C@H]4O[C@H](CO)[C@H](O)[C@H](O)[C@H]4O)[C@@H](O)[C@H](O)[C@H]3O)ccc12
2. CCCCCCCCCCCCCCCCCCOS(N)(=O)=O
query: In the pair 1 and 2 , the larger recorded pKi belongs to which? # answer = label of selected item
result: 1

P. NS(=O)(=O)c1cc(C(=O)N[C@@H](CS)C(=O)O)ccc1Cl
Q. CC(=O)N1N=C(c2ccc(OS(N)(=O)=O)cc2)CC1c1ccc(F)cc1 (centres undefined)
query: Sorting by pKi in descending order, would P or Q appear first? Please identify the chosen entry by its label.
result: P
(P: 6.52, Q: 6.18)

a. N#CCCN(CCc1ccccc1)CC(=O)N(CCc1ccc(S(N)(=O)=O)cc1)Cc1ccc(F)cc1
b. O=c1oc2c(O)c(O)cc3c(=O)oc4c(O)c(O)cc1c4c23
c. O=C(NS(=O)(=O)O)NS(=O)(=O)c1ccc(F)cc1
d. NS(=O)(=O)c1ccc(NC(=O)CN(CCOCCOCCN(CC(=O)O)CC(=O)Nc2ccc(S(N)(=O)=O)cc2)CC(=O)O)cc1
e. CC(CN(C)C)OC(=O)c1ccc(S(=O)(=O)Nc2nnc(S(N)(=O)=O)s2)cc1 (centres undefined)
query: Would you mind ranking these compounds by ascending pKi? Your reply should list the labels following the order given in the request.
result: d, b, a, c, e

====

Here, compounds appear alongside Ki reported for Carbonic anhydrase 1 (Homo sapiens) in the literature.
Measured Quantity: Ki (µM)

a. CC(C)c1cc(-c2ccccc2)cc(C(C)C)[n+]1CC(=O)Nc1ccc(S(N)(=O)=O)cc1I
b. COc1c(Br)c(Br)c(Cc2c(Br)c(Br)c(OC)c(OC)c2Br)c(Br)c1OC
c. C[C@H](CCC(=O)Nc1ccccc1S(N)(=O)=O)[C@H]1CC[C@H]2[C@@H]3[C@H](O)C[C@@H]4C[C@H](O)CC[C@]4(C)[C@H]3C[C@H](O)[C@]12C
d. C[C@H](CCC(=O)Nc1ccccc1S(N)(=O)=O)[C@H]1CC[C@H]2[C@@H]3CC[C@@H]4C[C@H](O)CC[C@]4(C)[C@H]3CC[C@]12C
query: Order the entries above by descending Ki. Returns: the labels listed in the requested order.
result: b, c, d, a
(b: 43.5 µM, c: 25.5 µM, d: 9.2 µM, a: 0.63 µM)

A. CCN(CCC(=O)N(CCc1ccc(S(N)(=O)=O)cc1)Cc1ccccc1)Cc1ccccc1
B. CCCCCCN(CCCCCC)CCC(=O)N(CCc1ccc(S(N)(=O)=O)cc1)Cc1ccccc1
query: // which entry reports the smaller Ki, A or B ? Response format: the label of the selected entry.
result: B

====

pKi: −log10 of the molar value.
Literature roundup of Carbonic anhydrase 1 (Homo sapiens, UniProt P00915) data, read-out pKi.
Measured Quantity: pKi

A. NS(=O)(=O)c1cc(C(=O)NCc2ccccc2)c(Cl)cc1S
B. C[C@H](NC(=O)c1ccc(S(N)(=O)=O)cc1)C(=O)O
C. NS(=O)(=O)c1ccc(/N=c2\scc(-c3ccccc3)n2-c2ccccc2)cc1
D. NS(=O)(=O)c1ccc(-n2ncc(NCc3ccccc3)c(Cl)c2=O)cc1
query: sort_by: pKi; order: ascending; scope: items listed above Rank them, then answer with their labels in that order.
result: A, C, B, D

1. O=C1C=CC[C@H](C[C@@H](O)CCc2ccc(O)cc2O)O1
2. NS(=O)(=O)c1ccc(NC(=O)CSC(=S)N2CCN(c3ccccc3)CC2)cc1
3. Cc1cc(C)c2c(c1)NC(=O)NS2(=O)=O
4. NS(=O)(=O)c1nnc(NC(=O)CCNC(=O)CN(CCOCCOCCN(CC(=O)O)CC(=O)O)CC(=O)O)s1
5. Cc1c(CC(=O)Nc2ccc(S(N)(=O)=O)cc2)c(=O)oc2cc3occ(-c4ccc(F)cc4)c3cc12
query: Put the items in order so that reported pKi rises from first to last. Labels, requested order.
result: 5, 3, 2, 1, 4
(5: 5.15, 3: 5.72, 2: 6.15, 1: 6.42, 4: 6.92)

1. CCc1cc(-c2ccccc2)cc(CC)[n+]1CC(=O)Nc1cc(Cl)c(S(N)(=O)=O)cc1S(N)(=O)=O
2. C[C@H](CCC(=O)Nc1cc(Cl)c(S(N)(=O)=O)cc1S(N)(=O)=O)[C@H]1CC[C@H]2[C@@H]3C(=O)C[C@@H]4CC(=O)CC[C@]4(C)[C@H]3CC(=O)[C@]12C
query: Smaller pKi value? Options are 1 and 2 Lab note: record the label of whichever item you select.
result: 1
(1: 6.46, 2: 7.11)

I. NCC(=O)NCC(=O)Nc1nnc(S(N)(=O)=O)s1
II. NCCCCC(/N=C(\S)Nc1ccc(S(N)(=O)=O)cc1)C(=O)O (centres undefined)
III. CCNS(=O)(=O)c1ccc2c(c1)S(=O)(=O)C=C2
IV. C[C@H](CCC(=O)OCCOc1ccc2nc(S(N)(=O)=O)sc2c1)[C@H]1CC[C@H]2[C@@H]3[C@H](O)C[C@@H]4C[C@H](O)CC[C@]4(C)[C@H]3C[C@H](O)[C@]12C
V. NS(=O)(=O)NC1CCCCC1
query: Number of compounds to sort: 5. Sort criterion: pKi, ascending. Answer format: list of labels, ordered as asked.
result: III, I, V, II, IV

A. CCN=C(S)NNC(=O)c1ccncc1
B. NCCCCNCCCN
query: Look at A and B . Which one has the lower recorded pKi number? Provide the label of your selected option as the answer.
result: B
(B: 5.85, A: 7.01)

1. NS(=O)(=O)c1ccc(CNC(=O)CN(CCN(CC(=O)O)CC(=O)O)CC(=O)O)cc1
2. O=C(CNOCc1ccccc1)NO
query: For 1 and 2 , which recorded pKi is lower? Your answer should be the label of the entry you select.
result: 2

I. NS(=O)(=O)c1ccc(NC(=O)CNCCNCC(=O)O)c(I)c1
II. NS(=O)(=O)c1ccc(CNC(=O)c2cccc(Cl)c2)cc1
query: Please indicate which item has the smaller measured pKi: I versus II When you have decided, please share the label of that item.
result: I
(I: 6.37, II: 7.18)

A. NCCCN(CCc1ccccc1)CC(=O)N(CCc1ccc(S(N)(=O)=O)cc1)Cc1ccco1
B. CCC(C)CCC(=O)O (centres undefined)
C. COc1ccc(CNCCc2ccc(S(N)(=O)=O)cc2)cc1
query: Returns the items ordered by pKi, from maximum to minimum. A complete answer lists every label in the requested sequence.
result: C, A, B
